Taken from PubChem BioAssay.

Item-by-item account of composite z-score
assaySummary: small-molecule microarray binders of probe aShh, primary screen, biochemical, biotinylated probe, 635/667 nm fluorescence (AID 1114);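 note: probe is biotin-labelled aShh protein from a stem cell growth factor screen; measures binding of labelled protein to compounds printed on the slide; score merges feature fluorescence at 667 nm with signal-to-noise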
cond: higher = more signal

molecule	composite z-score
O=C1NC(=O)C2C1C=CC(C(O)c1c(F)cccc1Cl)N2Nc1ccccn1 (stereo not drawn)	-0.0274
CN1C(=O)[C@@]2(CCS(=O)(=O)c3ccccc3)N=C(c3ccc(OCCCO)cc3)O[C@H]2c2ccccc21	-0.367
CCOC(=O)C1=CC[C@@H](c2cc(Cl)ccc2Cl)N(S(=O)(=O)c2ccc(C)cc2)[C@H]1c1ccc(OC)cc1	0.898
C=CCOC(=O)[C@@H]1[C@H]2C(=O)O[C@H](c3ccccc3)[C@H](c3ccccc3)N2[C@H](c2ccc(OCCOC(=O)[C@H]3C[C@H]4C(=O)N[C@@H](CC(C)C)C(=O)N4[C@H]3c3ccc(O)cc3)cc2)[C@@]12C(=O)Nc1ccc(I)cc12	0.235
[N-]=[N+]=NCc1ccccc1C[C@@]1(C(N)=O)N=C(c2ccc(OCCCO)cc2)O[C@@H]1c1ccccc1CN=[N+]=[N-]	0.19
C[C@]1(C(=O)NCCN2CCOCC2)c2ccccc2C(=O)N(Cc2ccc(OC(F)(F)F)cc2)[C@H]1c1ccc(CO)cc1	-0.503
C[C@H]1C2=C3C(CC[C@H]4C(OCc5ccc(F)cc5C(F)(F)F)OC[C@](C)([C@@H]34)N(C(=O)OC(C)(C)C)C2)C2COC(=O)OCC21 (stereo partly drawn)	0.26
[N-]=[N+]=NCc1ccccc1C[C@@]1(C(=O)NCCN2CCOCC2)N=C(c2ccc(OCCCO)cc2)O[C@@H]1c1ccccc1N=[N+]=[N-]	0.0141
O=C1C[C@@](C(=O)NCC(F)(F)F)(c2ccc([N+](=O)[O-])cc2)[C@@H](c2ccc(CO)cc2)N1C1CCCCC1	0.0898
Cc1ccc(S[C@]2(C(=O)NCC(F)(F)F)CC(=O)N(Cc3ccccc3)[C@@H]2c2ccc(CO)cc2)cc1	-0.268
C=CCOC(=O)[C@H]1[C@@H]2C(=O)O[C@@H](c3ccccc3)[C@@H](c3ccccc3)N2[C@@H](c2ccc(OCCOC(=O)[C@H]3C[C@H]4C(=O)N[C@@H](Cc5ccccc5)C(=O)N4[C@H]3c3ccc(O)cc3)cc2)[C@]12C(=O)Nc1ccc(I)cc12	-0.333
NC(=O)NCC#Cc1ccc2c(c1)[C@]1(C(=O)N2)[C@H](c2ccc(O)cc2)N2[C@H](c3ccccc3)[C@H](c3ccccc3)OC(=O)[C@H]2[C@@H]1C(=O)Nc1nc2ccccc2s1	0.246
COC(=O)C1(Cc2ccccc2)C=C2C(=C(C(C)C)C(=O)C2C)CN1 (stereo not drawn)	0.109

====

assaySummary: binders of probe aHhip on microarray, primary screen, stem cell growth factor project, biochemical, small-molecule microarray, fluorescence 635/667 (AID 1087);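 note: score merges spot fluorescence at 667nm with spot signal to noise ratio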
cond: higher = more signal
Decision: composite z-score compared against -0.1; not below it gives Fulfilled, below it gives Not fulfilled.

compound	discreteLabel
COc1cc(CO)cc(I)c1O[C@H]1C=C(C(=O)NCCO)C[C@@H](NCc2ccccc2F)[C@@H]1O	Fulfilled
O=C1NC(=O)C2C1C=CC(C(O)c1cc(C(F)(F)F)cc(C(F)(F)F)c1)N2Nc1ccc(Cl)cc1Cl (stereo unspecified)	Fulfilled
O=C1O[C@@H](c2ccccc2)[C@@H](c2ccccc2)N2[C@@H](c3ccc(O)cc3)[C@]3(C(=O)Nc4ccc(C#CCCO)cc43)[C@@H](C(=O)NC[C@H](O)c3ccccc3)[C@H]12	Not fulfilled
COC(=O)c1c(CC[C@@H](CO)NC(=O)N[C@H](Cn2cc(-c3ccccc3C)nn2)C(C)C)oc(C(C)=O)c1C(=O)OC	Fulfilled
COCCCNC(=O)[C@@H]1c2ccccc2C(=O)N(Cc2ccccc2C(F)(F)F)[C@H]1c1ccc(CO)cc1	Fulfilled
C=CCOC(=O)[C@@H]1[C@H]2C(=O)O[C@H](c3ccccc3)[C@H](c3ccccc3)N2[C@H](c2ccc(OCCOC(=O)[C@H]3C[C@H]4C(=O)N[C@@H](CCCC[N+](C)(C)C)C(=O)N4[C@H]3c3ccc(O)cc3)cc2)[C@@]12C(=O)Nc1ccc(I)cc12	Not fulfilled
